Collected growth values appear next to each entry.
test system: BT-549 breast; experiment: NCI-60 one-dose screen, 48 h (100 = growth as untreated, 0 = no growth, -100 = all killed); settings: 10 µM unless noted
Compounds without any hit were thinned out: in the full panel of roughly 83,000, 20% have a hit. Calls of active or inactive are those of the source. How the source made its calls: active means growth percent below 10; inactive means the rest.

Data request, read-out growth, for CN(C)C1CCN(C(=O)c2ccc(NC(=O)Nc3ccc(-c4nc(N5CCOCC5)nc(N5CCOCC5)n4)cc3)cc2)CC1
-10.1% [2.5 µM] (active)

# repeat for Cn1nccc1Nc1nccc(-c2ccn([C@H](CO)c3ccc(Cl)c(F)c3)c(=O)c2)n1
93.6% (inactive)

Next record, please: N#Cc1c(-c2ccc(C(F)(F)F)cc2)c(F)c(NCCC2CCC(O)C2)n2c1nc1ccccc12 (configuration not stated)
30.1% (inactive)

Try the molecule COc1cnc2c(c1)C(=O)c1c-2n(CCCN2CCOCC2)c(=O)c2cc(Cl)ccc12
43.6% (inactive)
